- TEST_SYSTEM: SdiA (Salmonella enterica subsp. enterica serovar Typhimurium)
- Sequence (O66040 entry or part of it): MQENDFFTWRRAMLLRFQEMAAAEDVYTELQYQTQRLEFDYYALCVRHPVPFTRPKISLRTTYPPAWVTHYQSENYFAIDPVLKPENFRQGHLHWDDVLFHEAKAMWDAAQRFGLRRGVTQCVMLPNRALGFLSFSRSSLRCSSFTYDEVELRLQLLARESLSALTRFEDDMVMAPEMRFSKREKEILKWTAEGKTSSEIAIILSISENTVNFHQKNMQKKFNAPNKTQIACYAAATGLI
- ASSAY_METHOD_TEXT: S. Typhimurium-pJNS25 SdiA reporter, competitive antagonism against 10 nM L-OOHL
- Type: cell-based
- CONDITIONS: 1 μM compound; average ± STD, change in activity from 10 nM 2 (OOHL); read-out: Antagonism 1 μM Inhibition (%)
READOUT_TYPE: inhibition at 1 µM (%)
Report the value in % with no unit label.

The examples below pair each entry with its known result.
In [3]: df
Out[3]:
                                   molecule        readout_type  reported
0        CCCCCCCCCCCCCCCC(=O)N[C@H]1CCOC1=O  inhibition at 1 µM        17
1         O=C(Cc1ccc(Br)cc1)N[C@@H]1CCOC1=O  inhibition at 1 µM        41
2  O=C(Nc1ccccc1NC(=O)c1cccc(Cl)c1)c1cccc(Cl)c1 [compound 20, reference compound]  inhibition at 1 µM        35
3  [N-]=[N+]=NCCCCCCCCCCCC(=O)N[C@H]1CCOC1=O  inhibition at 1 µM        -1
4  O=C(CCCOc1cccc(Br)c1)N[C@H]1CCSC1=O [compound 16, reference compound]  inhibition at 1 µM         8
5   O=C(Cc1ccc(-c2ccccc2)cc1)N[C@H]1CCOC1=O  inhibition at 1 µM        11
6          O=C(CCc1cccc(I)c1)N[C@H]1CCOC1=O  inhibition at 1 µM        20
7         N#Cc1cccc(CC(=O)N[C@H]2CCOC2=O)c1  inhibition at 1 µM        18
8             O=C(CCC1CCCCC1)N[C@H]1CCOC1=O  inhibition at 1 µM         6
9          COc1ccc(CC(=O)N[C@H]2CCSC2=O)cc1  inhibition at 1 µM       -13

INPUT: Fill in inhibition at 1 µM for record O=C(Oc1c(Br)cc(Br)cc1CNC(=O)c1ccccc1[N+](=O)[O-])c1ccccc1Cl [19R, reference compound]
OUTPUT: 43

INPUT: Fill in inhibition at 1 µM for record CCOC(=O)CNC(=O)Cc1ccc(Br)cc1
OUTPUT: 27

INPUT: Fill in inhibition at 1 µM for record CCCCCC(=O)CC(=O)N[C@H]1CCSC1=O
OUTPUT: -19

INPUT: Fill in inhibition at 1 µM for record CSc1cccc(CC(=O)N[C@H]2CCOC2=O)c1
OUTPUT: 20

INPUT: Fill in inhibition at 1 µM for record CCCC(=O)N[C@H]1CCSC1=O
OUTPUT: -5

INPUT: Fill in inhibition at 1 µM for record O=C(Cc1ccccc1Br)N[C@H]1CCOC1=O
OUTPUT: 9

INPUT: Fill in inhibition at 1 µM for record CCOC(=O)CNC(=O)Cc1ccc(OC)cc1
OUTPUT: 3

INPUT: Fill in inhibition at 1 µM for record Cc1cccc(OCC(=O)N[C@H]2CCOC2=O)c1
OUTPUT: -2

INPUT: Fill in inhibition at 1 µM for record CCCCCCCC(=O)N[C@H]1CCSC1=O
OUTPUT: 3
